B1: Twister Ribozyme (parent)
chain: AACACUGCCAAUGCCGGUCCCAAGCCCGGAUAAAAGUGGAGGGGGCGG

Variants of: B1
assay-text: self-cleavage, relative activity (ratio to wild type); higher = more cleavage; co-transcriptional
Form field: self-cleavage (one value per entry).
Response field accepts a number only; no unit should be typed.

mutation-label	self-cleavage
C5U G24A	0.058

For the variant shown here, G13C G48A , give the reported self-cleavage.
0.115

Also need A32U U37G , thanks.
0.737

Also need G7C A32C , thanks.
0.0784
